Origin of values: patent US7446199B2

Target: c-Met (Homo sapiens, UniProt P08581)
Sequence (P08581 25-1390): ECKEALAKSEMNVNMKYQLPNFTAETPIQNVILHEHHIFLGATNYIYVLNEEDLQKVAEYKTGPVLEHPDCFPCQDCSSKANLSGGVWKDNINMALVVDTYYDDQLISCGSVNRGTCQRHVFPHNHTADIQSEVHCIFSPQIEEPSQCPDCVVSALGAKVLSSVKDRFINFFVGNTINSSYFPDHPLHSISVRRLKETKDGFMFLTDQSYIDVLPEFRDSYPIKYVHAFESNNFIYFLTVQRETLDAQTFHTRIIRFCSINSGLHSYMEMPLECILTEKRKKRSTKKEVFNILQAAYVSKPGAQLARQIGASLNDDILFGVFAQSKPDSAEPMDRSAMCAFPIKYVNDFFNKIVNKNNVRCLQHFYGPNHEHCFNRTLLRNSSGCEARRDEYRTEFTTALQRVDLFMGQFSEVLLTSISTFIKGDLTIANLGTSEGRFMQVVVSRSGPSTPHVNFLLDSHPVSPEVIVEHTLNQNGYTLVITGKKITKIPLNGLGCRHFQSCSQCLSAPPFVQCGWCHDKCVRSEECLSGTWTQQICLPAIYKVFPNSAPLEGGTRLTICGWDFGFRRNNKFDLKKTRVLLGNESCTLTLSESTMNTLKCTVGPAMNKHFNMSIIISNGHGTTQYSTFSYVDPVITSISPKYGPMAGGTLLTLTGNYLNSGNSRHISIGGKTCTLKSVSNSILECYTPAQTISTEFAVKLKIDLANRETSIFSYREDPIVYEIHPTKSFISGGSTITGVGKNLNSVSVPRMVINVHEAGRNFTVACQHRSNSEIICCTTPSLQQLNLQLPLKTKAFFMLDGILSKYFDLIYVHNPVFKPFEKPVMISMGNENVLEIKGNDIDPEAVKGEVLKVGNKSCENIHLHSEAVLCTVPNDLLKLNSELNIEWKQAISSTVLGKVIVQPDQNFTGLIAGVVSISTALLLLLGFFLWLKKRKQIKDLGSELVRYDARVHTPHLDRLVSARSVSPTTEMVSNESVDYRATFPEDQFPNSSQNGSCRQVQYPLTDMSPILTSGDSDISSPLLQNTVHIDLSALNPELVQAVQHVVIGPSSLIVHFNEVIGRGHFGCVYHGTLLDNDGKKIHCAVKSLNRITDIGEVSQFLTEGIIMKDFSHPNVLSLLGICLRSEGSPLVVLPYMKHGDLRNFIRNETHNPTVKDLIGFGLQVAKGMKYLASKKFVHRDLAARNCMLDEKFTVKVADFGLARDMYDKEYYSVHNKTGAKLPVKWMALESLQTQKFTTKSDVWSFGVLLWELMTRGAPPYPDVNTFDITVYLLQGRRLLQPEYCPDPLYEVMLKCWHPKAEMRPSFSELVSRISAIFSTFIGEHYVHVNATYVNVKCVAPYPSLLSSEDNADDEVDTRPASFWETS
Assay: Ki determination for the inhibition of c-Met, coupled enzyme system
Type: biochemical
Conditions: 200 μM ATP, 10 μM polyGluTyr, 80 nM c-Met, 30° C.
Experimental: Compounds were screened for their ability to inhibit c-Met kinase activity using a standard coupled enzyme system (Fox et al., Protein Sci. 1998, 7, 2249). […] An assay stock buffer solution was prepared containing all of the reagents listed above with the exception of ATP and a test compound of the present invention. […] Rates of reaction were obtained using a Molecular Devices Spectramax plate reader (Sunnyvale, Calif.) over 10 minutes at 30° C. […]
measurement-name: Ki

{"columns": ["molecule", "measurement-name", "measurement"],
 "data": [
  ["Oc1cnc2[nH]cc(-c3oncc3-c3cccc(F)c3F)c2c1 [Compound 43]", "Ki", "< 0.2 µM"],
  ["Fc1cccc(-c2cnoc2-c2c[nH]c3nc(Cl)c(-c4ccncc4)cc23)c1F [Compound 103]", "Ki", "0.2 to 1 µM"],
  ["Fc1cccc(-c2cnoc2-c2c[nH]c3ncccc23)c1F [Compound 1]", "Ki", "< 0.2 µM"],
  ["c1cnc2[nH]cc(-c3oncc3C3CCCCC3)c2c1 [Compound 47]", "Ki", "1 to 12.5 µM"],
  ["O=C(c1cnc2[nH]cc(-c3oncc3-c3cccc(F)c3F)c2c1)N1CCCC1 [Compound 104]", "Ki", "0.2 to 1 µM"]
]}

Query: Item under review: CS(=O)(=O)NC1CC=C(c2cnc3[nH]cc(-c4oncc4-c4cccc(F)c4F)c3c2)CC1 (centres unmarked) [Compound 140] . Reported Ki?
Result: < 0.2 µM

Query: Item under review: c1ccc(-c2cnoc2-c2c[nH]c3ncccc23)cc1 [Compound 35] . Reported Ki?
Result: 0.2 to 1 µM

Query: Item under review: COC(=O)c1cnc2[nH]cc(-c3oncc3-c3cccc(F)c3F)c2c1 [Compound 105] . Reported Ki?
Result: < 0.2 µM

* * *

biological target: GSK-3β, (AA 1-420) (Homo sapiens, UniProt P49841)
Sequence (P49841 whole entry, the tested form may be a part): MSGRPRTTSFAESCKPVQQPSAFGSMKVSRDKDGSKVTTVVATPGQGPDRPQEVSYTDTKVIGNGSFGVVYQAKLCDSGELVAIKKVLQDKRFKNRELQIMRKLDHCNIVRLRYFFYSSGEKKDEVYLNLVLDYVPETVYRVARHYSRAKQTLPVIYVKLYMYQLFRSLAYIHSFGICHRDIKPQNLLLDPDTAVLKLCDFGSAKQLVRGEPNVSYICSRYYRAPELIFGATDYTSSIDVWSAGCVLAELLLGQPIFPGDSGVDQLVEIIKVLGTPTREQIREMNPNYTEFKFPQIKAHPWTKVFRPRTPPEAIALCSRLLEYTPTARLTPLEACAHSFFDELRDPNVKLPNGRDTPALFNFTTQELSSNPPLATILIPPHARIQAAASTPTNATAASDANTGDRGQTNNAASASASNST
measurement-name: Ki

{"columns": ["smiles-notation", "Ki"],
 "data": [
  ["O=c1ccc(-c2cnc3[nH]cc(-c4oncc4-c4cccc(F)c4F)c3c2)c[nH]1", "< 0.2 µM"],
  ["Fc1cccc(-n2cnnc2-c2c[nH]c3ncc(-c4ccncc4)cc23)c1F", "< 0.2 µM"],
  ["CS(=O)(=O)Nc1ccc(-c2cnc3[nH]cc(-c4oncc4-c4cccc(F)c4F)c3c2)cc1", "< 0.2 µM"],
  ["CN1CCC(c2cnc3[nH]cc(-c4oncc4-c4cccc(F)c4F)c3c2)CC1", "0.2 to 1 µM"],
  ["Fc1cccc(-c2cnoc2-c2c[nH]c3c(F)cccc23)c1F", "1 to 12.5 µM"]
]}

Query: Item under review: "Fc1cccc(-c2cnoc2-c2c[nH]c3ncc(-c4cccnc4)cc23)c1F" . Reported Ki?
Result: 0.2 to 1 µM

Query: Item under review: "CN(C)Cc1ccc(-c2cnc3[nH]cc(-c4oncc4-c4cccc(F)c4F)c3c2)nc1" . Reported Ki?
Result: 0.2 to 1 µM

* * *

biological target: JAK3 (Homo sapiens); assay: JAK3 inhibition assay (ELISA, Poly (Glu, Ala, Tyr) coated plates); format: biochemical; conditions: 2 mM ATP, 60 minutes at 30° C.
Sequence (P52333 whole entry): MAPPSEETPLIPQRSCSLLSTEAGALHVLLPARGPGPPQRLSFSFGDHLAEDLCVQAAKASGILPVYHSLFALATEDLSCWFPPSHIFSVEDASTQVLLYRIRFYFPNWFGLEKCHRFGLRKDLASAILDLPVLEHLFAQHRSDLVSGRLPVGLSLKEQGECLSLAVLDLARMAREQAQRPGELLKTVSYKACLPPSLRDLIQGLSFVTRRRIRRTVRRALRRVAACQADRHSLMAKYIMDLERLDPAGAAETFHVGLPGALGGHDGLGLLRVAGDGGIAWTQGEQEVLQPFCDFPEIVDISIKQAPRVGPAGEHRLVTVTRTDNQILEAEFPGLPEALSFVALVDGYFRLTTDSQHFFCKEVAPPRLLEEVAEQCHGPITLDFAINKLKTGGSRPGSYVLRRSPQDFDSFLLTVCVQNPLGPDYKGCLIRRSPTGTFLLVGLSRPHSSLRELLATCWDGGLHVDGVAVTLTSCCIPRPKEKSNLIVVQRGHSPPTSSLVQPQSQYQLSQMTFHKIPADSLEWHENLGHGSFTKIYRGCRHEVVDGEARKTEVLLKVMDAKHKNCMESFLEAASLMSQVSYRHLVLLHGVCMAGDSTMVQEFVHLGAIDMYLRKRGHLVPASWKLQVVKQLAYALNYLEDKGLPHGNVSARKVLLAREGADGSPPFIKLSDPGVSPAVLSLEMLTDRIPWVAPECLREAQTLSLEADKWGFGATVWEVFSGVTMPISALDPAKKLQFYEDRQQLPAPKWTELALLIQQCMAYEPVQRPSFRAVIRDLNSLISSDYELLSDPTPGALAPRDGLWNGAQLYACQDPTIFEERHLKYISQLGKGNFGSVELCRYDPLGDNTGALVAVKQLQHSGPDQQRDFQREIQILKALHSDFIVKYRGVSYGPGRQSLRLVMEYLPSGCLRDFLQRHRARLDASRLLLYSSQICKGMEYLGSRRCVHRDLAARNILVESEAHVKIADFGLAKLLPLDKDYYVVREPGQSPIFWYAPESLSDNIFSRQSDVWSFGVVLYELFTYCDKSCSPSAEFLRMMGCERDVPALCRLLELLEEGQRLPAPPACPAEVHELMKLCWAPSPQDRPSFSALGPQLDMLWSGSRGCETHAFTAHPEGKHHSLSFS
Readings of Ki for the listed compounds

Illustrative cases are given below, each with its answer.
{"columns": ["compound", "Ki"],
 "data": [
  ["Oc1cccc(-c2cnc3[nH]cc(-c4oncc4-c4cccc(F)c4F)c3c2)c1", "< 200 nM"],
  ["COc1ccnc(-c2cnc3[nH]cc(-c4oncc4-c4cccc(F)c4F)c3c2)c1", "200 to 1000 nM"],
  ["C[N+]1(C)CCN(c2ccc(-c3cnc4[nH]cc(-c5oncc5-c5cccc(F)c5F)c4c3)cc2)CC1", "< 200 nM"],
  ["CN1CCN(c2ccc(-c3cnc4[nH]cc(-c5oncc5-c5cccc(F)c5F)c4c3)cn2)CC1", "< 200 nM"],
  ["CN(C)C1CCC(c2cnc3[nH]cc(-c4oncc4-c4cccc(F)c4F)c3c2)CC1 (centres unmarked)", "200 to 1000 nM"]
]}

Query: Observed Ki on JAK3 (Homo sapiens) for "Cn1ccc2c(-c3oncc3-c3cccc(F)c3F)c[nH]c2c1=O" , please.
Result: 1000 to 12500 nM
